# credit: patent US20240270821A1

# ASSAY SYSTEM: hGLP-1R (Homo sapiens, UniProt P43220)
# Sequence (P43220 24-463): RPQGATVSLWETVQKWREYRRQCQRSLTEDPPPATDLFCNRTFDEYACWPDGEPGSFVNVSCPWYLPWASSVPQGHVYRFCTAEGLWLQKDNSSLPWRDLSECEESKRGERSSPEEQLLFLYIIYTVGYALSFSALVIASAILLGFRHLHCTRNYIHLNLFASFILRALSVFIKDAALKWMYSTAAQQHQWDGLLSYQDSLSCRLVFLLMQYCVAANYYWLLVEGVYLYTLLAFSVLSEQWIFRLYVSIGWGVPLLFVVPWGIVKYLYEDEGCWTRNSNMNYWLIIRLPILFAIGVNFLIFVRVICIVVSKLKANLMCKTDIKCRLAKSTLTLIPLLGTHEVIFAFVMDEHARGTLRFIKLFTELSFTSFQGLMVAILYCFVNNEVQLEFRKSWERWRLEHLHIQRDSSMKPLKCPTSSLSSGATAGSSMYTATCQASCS
# ASSAY METHOD TEXT: cell-based or functional assay
Starred links: 1 amine or outer side, 2 acyl side, 3 side chain; linkers in the order of their positions; H or OH if unused. Non-standard residues stand in square brackets, D forms with d. Groups on a side chain read outwards from the residue. No end group written: not given here. *: point of attachment. C20 diacid = O=C(O)CCCCCCCCCCCCCCCCCCC(=O)*; γGlu = O=C(O)[C@H](CCC(=O)[*:2])N[*:1]; αMeL = CC(C)C[C@](C)(N)C(=O)O; AEEA = NCCOCCOCC(=O)O; Aib = CC(C)(N)C(=O)O
# note: boundary value 70 nM maps to N; cAMP Rel EC50 (1% HSA) below it maps to Y

Record excerpt, results attached:
BINDER	LABEL CLASS
YXQGTFTSDFSRXLDKKAQXAFIEYLIEXSPSSGAPPPSGS (synthetic construct; SITE 2: note = 2-Aminoisobutyric Acid; SITE 13: note = alpha-methyl-leucine; SITE 17: note = Lysine is chemically modified through conjugation of the epsilon-amino group of the Lysine side chain with (2-[2-(2-Amino-ethoxy)-ethoxy]-acetyl)-(gamma-Glu)-CO-(CH2) 16-CO2H; SITE 20: n) [Example 806]	N
YXQGTFTSDXSQXLDXKAQXAFIQXLIEGGPSSGAPPPSGSEEE (Aib, 4Pal, αMeL, Orn, Me4Pal, αMeY; γGlu-C18 diacid Lys; amide; synthetic construct; SITE 2: note = 2-Aminoisobutyric Acid; SITE 10: note = 3-(4-Pyridyl)-L-alanine; SITE 13: note = alpha-methyl-leucine; SITE 16: note = L-ornithine; SITE 17: note = Lysine is chemically modified through conjugation of the epsilon-amino group of the Lysine side chain with D-Glutami) [Example 1076]	N
YXQGTXTSDXSILLDKKAQXAFIEXLEEGGPSSGAPPPSGEGE (synthetic construct; SITE 2: note = 2-Aminoisobutyric Acid; SITE 6: note = alpha-methyl-2-fluoro-L-phenylalanine; SITE 10: note = 3-(4-Pyridyl)-L-alanine; SITE 17: note = Lysine is chemically modified through conjugation of the epsilon-amino group of the Lysine side chain with (gamma-Glu)2-CO-(CH2)1) [Example 667]	Y
YXQGTXTSDXXIXLDXKAQXXFIEXLAEGGPSSGEPPPSGTGE (synthetic construct; SITE 2: note = 2-Aminoisobutyric Acid; SITE 6: note = alpha-methyl-2-fluoro-L-phenylalanine; SITE 10: note = 3-(4-Pyridyl)-L-alanine; SITE 11: note = alpha-methyl-L-serine; SITE 13: note = alpha-methyl-leucine; SITE 16: note = L-ornithine; SITE 17: note = Lysine is chemically mo) [Example 545]	Y

Is it true that cAMP Rel EC50 (1% HSA) reported for Y[Aib]QGTFTSDYSI[αMeL]LDKQAAK([AEEA-AEEA-γGlu-C20 diacid])QFVEWLIA[Aib]GPSSGEPPPAEG-NH2 [Example 334] is less than 70 nM?
N
